test system: Escherichia coli; assay: Antimicrobial activity against Escherichia coli ATCC 8739 by agar dilution method; type: functional
# MIC values compiled below

- Compound: "CCn1cc(C(=O)O)c(=O)c2cc(F)c(N3CCCC(C)C3)c(Cl)c21 (configuration not stated)"
  Unit Spec: "µg/mL"
  MIC: 8
- Compound: "CCn1cc(C(=O)O)c(=O)c2cc(F)c(N3CCNC(C)C3)c(Cl)c21 (configuration not stated)"
  Unit Spec: "µg/mL"
  MIC: 0.3
- Compound: "N[C@@H]1CCN2c3c(F)cc4c(=O)c(C(=O)O)cn(C5CC5)c4c3CCCC[C@H]12"
  Unit Spec: "µg/mL"
  MIC: 2
- Compound: "CCn1cc(C(=O)O)c(=O)c2cc(F)c(N3CCNCC3)c(Cl)c21"
  Unit Spec: "µg/mL"
  MIC: 2
- Compound: "CCn1cc(C(=O)O)c(=O)c2cc(F)c(N3CCN(C)CC3)c(Cl)c21"
  Unit Spec: "µg/mL"
  MIC: 2
- Compound: "CCn1cc(C(=O)O)c(=O)c2cc(F)c(N3CCNC(C)C3)c(Cl)c21.Cl (configuration not stated)"
  Unit Spec: "µg/mL"
  MIC: 31.2
- Compound: "CCn1cc(C(=O)O)c(=O)c2cc(F)c(N3CCOCC3)cc21"
  Unit Spec: "µg/mL"
  MIC: 16
- Compound: "CCn1cc(C(=O)O)c(=O)c2cc(F)c(N3CCCC(C)C3)cc21 (configuration not stated)"
  Unit Spec: "µg/mL"
  MIC: 1.28
- Compound: "CCn1cc(C(=O)O)c(=O)c2cc(F)c(N3CCCC3)cc21"
  Unit Spec: "µg/mL"
  MIC: 16
- Compound: "CCn1cc(C(=O)O)c(=O)c2cc(F)c(N3CCCC3)c(Cl)c21"
  Unit Spec: "µg/mL"
  MIC: 16
- Compound: "CCn1cc(C(=O)O)c(=O)c2cc(F)c(N3CCCCC3)cc21"
  Unit Spec: "µg/mL"
  MIC: 32
- Compound: "CCn1cc(C(=O)O)c(=O)c2cc(F)c(N3CCCCC3)c(Cl)c21"
  Unit Spec: "µg/mL"
  MIC: 128

###

test system: PC-3; test: Growth inhibition of human PC3 cells by MTT assay; format: functional, cell-based
# IC50 values compiled below

- Test Smiles: "COc1c(N2CCN(C)CC2)c(F)cc2c(=O)c(C(=O)N/N=C\\c3c(Cl)cccc3Cl)cn(C3CC3)c12"
  IC50: "4.9 µg/mL"
- Test Smiles: "COc1c(N2CCN(C)CC2)c(F)cc2c(=O)c(C(=O)N/N=C\\c3cc(Br)ccc3O)cn(C3CC3)c12"
  IC50: "12 µg/mL"
- Test Smiles: "COc1c(N2CCN(C)CC2)c(F)cc2c(=O)c(C(=O)N/N=C\\c3ccc(O)cc3)cn(C3CC3)c12"
  IC50: "14.4 µg/mL"
- Test Smiles: "COc1cc(/C=N\\NC(=O)c2cn(C3CC3)c3c(OC)c(N4CCN(C)CC4)c(F)cc3c2=O)cc(OC)c1OC"
  IC50: "8.5 µg/mL"

###

system: Staphylococcus aureus; experiment: Antimicrobial activity against methicillin-susceptible Staphylococcus aureus clinical isolate incubated for 16 hrs by CLSI based agar dilution method; format: functional
Quantity Kind: MIC

- Molecule: "COc1c(N2CCN(C(O)Cn3cc([N+](=O)[O-])nc3Cl)CC2)c(F)cc2c(=O)c(C(=O)O)cn(C3CC3)c12 (configuration not stated)"
  Target System: "Staphylococcus aureus"
  Quantity Kind: "MIC"
  Observed Measurement: "0.5 µg/mL"
- Molecule: "CCn1cc(C(=O)O)c(=O)c2cc(F)c(N3CCN(CC(O)Cn4cc([N+](=O)[O-])nc4Cl)CC3)nc21 (configuration not stated)"
  Target System: "Staphylococcus aureus"
  Quantity Kind: "MIC"
  Observed Measurement: "16 µg/mL"
- Molecule: "COc1c(N2CCCC(N(C)CC(O)Cn3cc([N+](=O)[O-])nc3Cl)C2)c(F)cc2c(=O)c(C(=O)O)cn(C3CC3)c12 (configuration not stated)"
  Target System: "Staphylococcus aureus"
  Quantity Kind: "MIC"
  Observed Measurement: "0.5 µg/mL"
- Molecule: "CCn1cc(C(=O)O)c(=O)c2cc(F)c(N3CCN(CC(O)Cn4cc([N+](=O)[O-])nc4Cl)C(C)C3)c(F)c21 (configuration not stated)"
  Target System: "Staphylococcus aureus"
  Quantity Kind: "MIC"
  Observed Measurement: "4 µg/mL"
- Molecule: "COc1c(N2CCN(CC(O)Cn3cc([N+](=O)[O-])nc3C)C(C)C2)c(F)cc2c(=O)c(C(=O)O)cn(C3CC3)c12 (configuration not stated)"
  Target System: "Staphylococcus aureus"
  Quantity Kind: "MIC"
  Observed Measurement: "1 µg/mL"
- Molecule: "O=C(O)c1cn(CCF)c2c(F)c(N3CCN(CC(O)Cn4cc([N+](=O)[O-])nc4Cl)CC3)c(F)cc2c1=O (configuration not stated)"
  Target System: "Staphylococcus aureus"
  Quantity Kind: "MIC"
  Observed Measurement: "16 µg/mL"
- Molecule: "COc1c(N2C[C@@H]3CCCN(CC(O)Cn4cc([N+](=O)[O-])nc4C)[C@@H]3C2)c(F)cc2c(=O)c(C(=O)O)cn(C3CC3)c12 (some centres not stated)"
  Target System: "Staphylococcus aureus"
  Quantity Kind: "MIC"
  Observed Measurement: "0.5 µg/mL"

Measured values drawn from ChEMBL document CHEMBL4602605 for this set.
